Data provenance: paper PMC9736855

studyTarget: PLK4 (Homo sapiens, UniProt O00444)
Construct: purchased in-house DSF panel (SGC Frankfurt)
Sequence (O00444 2-275): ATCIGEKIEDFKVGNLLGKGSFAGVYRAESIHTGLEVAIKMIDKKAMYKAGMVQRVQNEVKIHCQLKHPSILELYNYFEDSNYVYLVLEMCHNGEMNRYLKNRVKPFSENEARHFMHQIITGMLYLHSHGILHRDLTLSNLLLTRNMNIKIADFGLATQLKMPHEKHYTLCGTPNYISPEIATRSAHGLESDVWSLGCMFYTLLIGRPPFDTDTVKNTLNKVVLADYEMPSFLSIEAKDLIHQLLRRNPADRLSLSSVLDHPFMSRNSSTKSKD
assayText: DSF
Format: binding
Can you tell me ΔTm PLK4 for the items I'm about to list?
The reply should be a number in °C, with the unit left off.

// query Provide only the value of recorded ΔTm PLK4 for N#CCc1ccc(Nc2nccc(Nc3cc(C4CC4)[nH]n3)n2)cc1 [compound 1, reference compound]
// result 11.1

// query Provide only the value of recorded ΔTm PLK4 for COC(=O)c1cc(Nc2ccnc(NCCOCCNC(=O)OC(C)(C)C)n2)[nH]n1 [21d]
// result 3.0

// query Provide only the value of recorded ΔTm PLK4 for CN[C@@H]1C[C@H]2O[C@@](C)([C@@H]1OC)n1c3ccccc3c3c4c(c5c6ccccc6n2c5c31)C(=O)NC4 [staurosporine, reference compound]
// result 16.0

// query Provide only the value of recorded ΔTm PLK4 for COC(=O)c1cc(Nc2ccnc(NCc3ccc(NC(=O)OC(C)(C)C)cc3)n2)[nH]n1 [21i]
// result 4.1

// query Provide only the value of recorded ΔTm PLK4 for CC(C)OC(=O)c1cc(Nc2ccnc(NCc3ccc(NC(=O)OC(C)(C)C)cc3)n2)n[nH]1 [42d]
// result 3.7

// query Provide only the value of recorded ΔTm PLK4 for CC(C)(C)OC(=O)Nc1ccc(CNc2nccc(Nc3cc(C(=O)OC(C)(C)C)[nH]n3)n2)cc1 [43d]
// result 5.5
